Assignment: determine reported IC50 for the given compounds.
Target: Glucagon-like peptide 1 receptor (Rattus norvegicus)
Sequence (P32301 whole entry): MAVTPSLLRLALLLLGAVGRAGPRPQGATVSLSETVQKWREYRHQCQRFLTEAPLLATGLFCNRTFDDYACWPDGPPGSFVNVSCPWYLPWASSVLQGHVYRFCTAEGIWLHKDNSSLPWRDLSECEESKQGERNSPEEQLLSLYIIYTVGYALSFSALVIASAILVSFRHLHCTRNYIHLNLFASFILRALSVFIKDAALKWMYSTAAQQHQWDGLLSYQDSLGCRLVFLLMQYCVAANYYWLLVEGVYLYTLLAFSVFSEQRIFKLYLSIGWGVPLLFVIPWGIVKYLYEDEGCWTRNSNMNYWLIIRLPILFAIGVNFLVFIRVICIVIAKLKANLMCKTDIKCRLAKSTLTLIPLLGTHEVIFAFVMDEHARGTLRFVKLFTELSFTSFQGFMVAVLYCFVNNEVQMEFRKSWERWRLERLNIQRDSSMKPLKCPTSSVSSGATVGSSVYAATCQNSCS
Experiment: Inhibition of [125I]GLP1 (7-36) amide binding to rat GLP1R expressed in HEK293 cells
Numeric answer only, unit µM assumed.

Item under review: `COc1cc([C@H]2[C@](NC(=O)c3ccc(NC(C)=O)cc3)(C(=O)O)[C@@H](c3ccc(OC(=O)c4cccs4)c(OC)c3)[C@]2(NC(=O)c2ccc(NC(C)=O)cc2)C(=O)O)ccc1OC(=O)c1cccs1` . Reported IC50? 2.31

Item under review: COc1cc([C@H]2[C@](NC(=O)c3ccc(NC(=O)C(C)NC(=O)OC(C)(C)C)cc3)(C(=O)O)[C@@H](c3ccc(OC(=O)c4cccs4)c(OC)c3)[C@]2(NC(=O)c2ccc(NC(=O)C(C)NC(=O)OC(C)(C)C)cc2)C(=O)O)ccc1OC(=O)c1cccs1 (stereo partly specified) . Reported IC50? 0.9

Item under review: `CCOC(=O)CNC(=O)Nc1ccc(C(=O)N[C@]2(C(=O)O)[C@H](c3ccc(OC(=O)c4cccs4)c(OC)c3)[C@@](NC(=O)c3ccc(NC(=O)NCC(=O)OCC)cc3)(C(=O)O)[C@@H]2c2ccc(OC(=O)c3cccs3)c(OC)c2)cc1` . Reported IC50? 4.3

Item under review: `CCOc1cc([C@H]2[C@](NC(=O)c3ccc(NC(=O)OC(C)(C)C)cc3)(C(=O)O)[C@@H](c3ccc(OC(=O)c4cccs4)c(OCC)c3)[C@]2(NC(=O)c2ccc(NC(=O)OC(C)(C)C)cc2)C(=O)O)ccc1OC(=O)c1cccs1` . Reported IC50? 3.1

----------
Molecular target: Glucagon-like peptide 1 receptor (Rattus norvegicus)
Sequence (whole entry): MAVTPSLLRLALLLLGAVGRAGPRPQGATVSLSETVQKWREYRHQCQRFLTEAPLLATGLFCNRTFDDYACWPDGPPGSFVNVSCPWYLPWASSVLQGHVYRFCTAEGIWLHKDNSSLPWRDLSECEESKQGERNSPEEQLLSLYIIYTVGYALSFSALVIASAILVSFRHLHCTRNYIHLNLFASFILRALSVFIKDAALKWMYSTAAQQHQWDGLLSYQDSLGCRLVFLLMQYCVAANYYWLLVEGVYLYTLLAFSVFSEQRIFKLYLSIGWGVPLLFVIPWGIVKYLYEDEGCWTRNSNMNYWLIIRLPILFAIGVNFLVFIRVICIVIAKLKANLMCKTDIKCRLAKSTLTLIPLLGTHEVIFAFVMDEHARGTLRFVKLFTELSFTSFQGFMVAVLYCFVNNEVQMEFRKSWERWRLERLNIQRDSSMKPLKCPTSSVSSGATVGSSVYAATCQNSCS
Experiment: Inhibition of [125I]Exendin (9-39) binding to rat GLP1R expressed in HEK293 cells
Type: cell-based
Design: concentration or dose not given beside the values
Settings: concentration not given here
Assignment: determine reported inhibition for the given compounds.

Item under review: `CC(C)(C)OC(=O)Nc1ccc(C(=O)N[C@]2(C(=O)O)[C@H](c3cccc(OCc4ccccc4)c3)[C@@](NC(=O)c3ccc(NC(=O)OC(C)(C)C)cc3)(C(=O)O)[C@@H]2c2cccc(OCc3ccccc3)c2)cc1` . Reported inhibition? < 15%

Item under review: `COc1cc([C@H]2[C@](NC(=O)c3ccc(NC(=O)OC(C)(C)C)cc3)(C(=O)O)[C@@H](c3ccc(OC(=O)C4CCCCC4)c(OC)c3)[C@]2(NC(=O)c2ccc(NC(=O)OC(C)(C)C)cc2)C(=O)O)ccc1OC(=O)C1CCCCC1` . Reported inhibition? < 15%

Item under review: `CC(C)(C)OC(=O)Nc1ccc(C(=O)N[C@]2(C(=O)O)[C@H](c3ccc(OC(=O)c4cccs4)cc3)[C@@](NC(=O)c3ccc(NC(=O)OC(C)(C)C)cc3)(C(=O)O)[C@@H]2c2ccc(OC(=O)c3cccs3)cc2)cc1` . Reported inhibition? < 15%
